Origin of the recorded values: ChEMBL document CHEMBL1129275

# Tested on: Oryctolagus cuniculus
# Assay details: Biodistribution pattern of [123I]- ligand was evaluated in liver of anesthetized rabbit after Intravenous injection of 50 uCi after 30 min
# Assay type: ADME, organism-based
# Reported conditions: in vivo, 0.5 h
Measured parameter: ID x kg of body weight/g of tissue (%)
Answers are plain numbers, in %.

Form field - read-out: ID x kg of body weight/g of tissue; system: Oryctolagus cuniculus; submitted item: CC(C)(/C=C/I)NC[C@H](O)COc1cccc2[nH]c3ccccc3c12
0.19

====

# Test system: Oryctolagus cuniculus
# Assay details: Biodistribution pattern of [123I]- ligand was evaluated in blood of anesthetized rabbit after Intravenous injection of 50 uCi after 30 min
# Assay type: ADME, organism-based
# Reported conditions: in vivo, 0.5 h
Measured parameter: ID x kg of body weight/g of tissue (%)
Answers are plain numbers, in %.

Consider the compound CC(C)(/C=C/I)NC[C@H](O)COc1cccc2[nH]c3ccccc3c12 and give its measured ID x kg of body weight/g of tissue.
0.02
